- subjectOfTest: T1, rmCIRP (recombinant murine cold-inducible RNA-binding protein) (mouse, UniProt P60824 1-172)
- T1 sequence: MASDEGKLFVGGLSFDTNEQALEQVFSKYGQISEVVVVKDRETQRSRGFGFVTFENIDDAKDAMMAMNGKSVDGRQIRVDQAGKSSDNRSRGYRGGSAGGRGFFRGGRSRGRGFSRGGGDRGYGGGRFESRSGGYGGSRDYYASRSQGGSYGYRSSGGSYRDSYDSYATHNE
- methodNotes: SPR; RNA immobilized on SA chip; text misprints 8.4 x 10^8 M; SPR (BIAcore T200), 1X HBS-EP running buffer; rmCIRP 7.8-500 nM over RNA; pH and temperature not stated
- measurementContext: single strand
quantityKind: Kd

binder: UUCACAGUGGCUAAGUUCUGC (ssRNA) [miRNA 27b mimic (27b-3p), biotinylated]
quantityKind: Kd
valueObserved: 0.0835 µM
